Target: Lp-PLA2 in human plasma (Homo sapiens, UniProt Q13093)
Construct: from tissue; host or cells: pooled human plasma
Sequence (Q13093 22-441): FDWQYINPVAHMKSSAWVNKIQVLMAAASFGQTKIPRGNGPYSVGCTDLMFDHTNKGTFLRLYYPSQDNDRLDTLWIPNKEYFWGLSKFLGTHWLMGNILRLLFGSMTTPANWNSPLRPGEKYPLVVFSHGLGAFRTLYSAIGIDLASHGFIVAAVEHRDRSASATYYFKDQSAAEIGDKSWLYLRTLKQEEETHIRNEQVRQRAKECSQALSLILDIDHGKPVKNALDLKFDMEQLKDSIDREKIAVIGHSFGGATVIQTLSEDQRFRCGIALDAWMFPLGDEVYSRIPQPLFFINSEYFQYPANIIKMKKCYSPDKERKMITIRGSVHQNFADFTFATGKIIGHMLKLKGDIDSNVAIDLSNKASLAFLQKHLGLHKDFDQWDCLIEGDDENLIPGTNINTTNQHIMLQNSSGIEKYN
Assay: Lp-PLA2 human plasma assay (Thio-PAF assay)
Format: biochemical
Settings: pooled human plasma; read-out: pIC50 values in the thio-PAF assay (converted)
measuredQuantity: IC50

Measured IC50 of C[C@@H]1CCn2c(cc(OCc3cc(F)c(Oc4ccc(F)cc4)c(F)c3)nc2=O)N1C : ≤ 100 nM

Field IC50 (entry C[C@@H]1CCn2c(cc(OCc3ccc(F)cc3)nc2=O)N1C ) reads ≤ 100 nM

The compound identified as C[C@@H]1CCn2c(cc(OCc3cccc(C#N)c3)nc2=O)N1C registered its IC50 at ≤ 100 nM

Please fill in: IC50 reported for C[C@H]1CCn2c(cc(OCc3ccc(Oc4ccc(C(F)(F)F)cc4)c(F)c3)nc2=O)N1C = ≤ 10 nM

Briefly, IC50 measured for C[C@H]1CCn2c(cc(OCc3ccc(Oc4cnc(C(F)(F)F)nc4)c(F)c3)nc2=O)N1C : ≤ 100 nM
